Target: human liver glycogen phosphorylase a (HLGPa) (Homo sapiens, UniProt P06737)
Construct: creating a full-length cDNA fused at the 5′ end to codons for methionine-glycine-alanine-histidine; 6xHis tag (leader Met-Gly-Ala-His6-Gly-Gly) (N); made in house; host or cells: E. coli (bacterial expression plasmid pTXK1007LTev)
Sequence (P06737 2-847 limits assumed): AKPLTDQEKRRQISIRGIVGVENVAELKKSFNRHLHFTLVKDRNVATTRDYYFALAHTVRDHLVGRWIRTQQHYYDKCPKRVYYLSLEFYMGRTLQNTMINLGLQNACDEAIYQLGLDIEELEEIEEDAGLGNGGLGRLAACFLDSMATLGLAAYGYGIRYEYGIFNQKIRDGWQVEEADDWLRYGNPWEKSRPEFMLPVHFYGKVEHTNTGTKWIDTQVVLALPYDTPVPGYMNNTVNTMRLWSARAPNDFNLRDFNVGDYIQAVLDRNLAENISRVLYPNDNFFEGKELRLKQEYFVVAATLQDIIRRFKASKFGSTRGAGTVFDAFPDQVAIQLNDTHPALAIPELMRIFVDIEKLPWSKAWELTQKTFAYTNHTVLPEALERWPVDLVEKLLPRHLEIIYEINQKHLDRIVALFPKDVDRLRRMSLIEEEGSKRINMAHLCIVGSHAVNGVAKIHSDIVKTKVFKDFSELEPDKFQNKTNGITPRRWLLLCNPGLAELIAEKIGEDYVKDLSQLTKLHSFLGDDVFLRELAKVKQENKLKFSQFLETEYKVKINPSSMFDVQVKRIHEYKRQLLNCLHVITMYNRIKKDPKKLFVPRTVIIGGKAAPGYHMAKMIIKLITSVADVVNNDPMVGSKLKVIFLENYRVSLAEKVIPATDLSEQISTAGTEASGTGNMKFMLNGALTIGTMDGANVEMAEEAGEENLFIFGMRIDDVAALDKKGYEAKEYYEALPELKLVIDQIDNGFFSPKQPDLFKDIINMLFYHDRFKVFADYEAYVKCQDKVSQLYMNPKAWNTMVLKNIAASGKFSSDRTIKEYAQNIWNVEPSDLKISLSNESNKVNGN
Test: Human liver glycogen phosphorylase a enzymatic activity assay (coupled, fluorescent resorufin readout, with and without 10 mM glucose)
Type: biochemical
Conditions: human liver glycogen phosphorylase a enzymatic activity assay
Observed property: IC50 (µM)

Study these solved cases before continuing.
COc1ccc(-c2ccc(C(=O)N[C@H](C(=O)O)[C@@H](C)OC(C)(C)C)c(NC(=O)Nc3c(C)cc(C4CC4)cc3C)c2)cc1 | 0.011
Cc1cccc(C)c1NC(=O)Nc1cc2ccccc2cc1C(=O)NC(C)CC(=O)O (stereo not shown) | 2.14

1: CCCOc1cc(C)c(NC(=O)Nc2cc3ccccc3cc2C(=O)N[C@H](C(=O)O)C2CCCCC2)c(C)c1
2: Cc1cccc(C)c1NC(=O)Nc1cc2ccccc2cc1C(=O)N[C@@H](CC1CCCCC1)C(=O)O [Example 145]
Exercise: Between these two entries, 1 and 2 , state which has the higher IC50. Your answer should be the label attached to the chosen record.
Solution: 2

---

Target: human liver glycogen phosphorylase a (HLGPa) (Homo sapiens, UniProt P06737)
Construct: creating a full-length cDNA fused at the 5′ end to codons for methionine-glycine-alanine-histidine; 6xHis tag (leader Met-Gly-Ala-His6-Gly-Gly) (N); made in house; host or cells: E. coli (bacterial expression plasmid pTXK1007LTev)
Assay: Human liver glycogen phosphorylase a enzymatic activity assay (coupled, fluorescent resorufin readout, with and without 10 mM glucose)
Type: biochemical
Settings: human liver glycogen phosphorylase a; table does not say whether with or without 10 mM glucose
Observed property: IC50 (nM)

A: Cc1cc(C)c(NC(=O)Nc2cc3ccccc3cc2C(=O)N2CCC[C@@H]2C(=O)O)c(C)c1
B: O=C(Nc1cc2ccccc2cc1C(=O)NC1(C(=O)O)CCCCC1)Nc1c(Cl)cc(Cl)cc1Cl
Exercise: I'm curious whether A or B has the smaller IC50 number. Which is it? Your answer should be the label attached to the chosen record.
Solution: B

I: Cc1cc(C)c(NC(=O)Nc2cc3ccccc3nc2C(=O)NC2(C(=O)O)CCCCCC2)c(C)c1
II: Cc1cc(C)c(NC(=O)Nc2cc3ccccc3cc2C(=O)NC(C(=O)O)C2CCC(NC(=O)OC(C)(C)C)CC2)c(C)c1 (mixture of isomers)
III: O=C(O)CN(Cc1ccccn1)C(=O)c1cc2ccccc2cc1NC(=O)Nc1c(Cl)cc(Cl)cc1Cl
Exercise: Order the records by IC50, with each subsequent value no larger than the one before. I'd appreciate it if you listed the labels in the requested order.
Solution: III, II, I
(III: 2860 nM, II: 44 nM, I: 11 nM)

1: O=C(Nc1sc(-c2ccccc2)cc1C(=O)O)Nc1c(Cl)cc(Cl)cc1Cl
2: CCOC(=O)C[C@H](NC(=O)c1ccc(-c2ccc(OC)cc2)cc1NC(=O)Nc1c(C)cc(C)cc1C)C(=O)O
Exercise: I'm curious whether 1 or 2 has the smaller IC50 number. Which is it? Your answer should be the label attached to the chosen record.
Solution: 2

Entry source: patent US20070249670A1
